Task for the reader: assign each of the following compounds its reported IC50.
Biological target: HSP90α protein (Homo sapiens, UniProt P07900)
Construct: purchased BPS Bioscience #50298
Assay: HSP90α-binding FP (FITC) assay
Settings: FP competition with FITC-geldanamycin

State its IC50 on HSP90α protein (Homo sapiens, UniProt P07900): CCOc1cc(N2CCC(C(=O)N3CCC(N4CCN(Cc5ccc(-n6c(O)nnc6-c6cc(C(C)C)c(O)cc6O)cc5)CC4)CC3)CC2)ccc1Nc1ncc2c(n1)N(C)c1ccccc1C(=O)N2C
100 to 1000 nM

Give IC50 (HSP90α protein (Homo sapiens, UniProt P07900)) of the following compound: CCOc1cc(N2CCC(C(=O)N3CCC(N4CCN(C(=O)O[C@H]5CC[C@H](Nc6cc(-n7nc(C(F)(F)F)c8c7CC(C)(C)CC8=O)ccc6C(N)=O)CC5)CC4)CC3)CC2)ccc1Nc1ncc2c(n1)N(C)c1ccccc1C(=O)N2C
> 1000 nM

###

Please provide measured IC50 for the entries that follow.
Target: HSP90α protein (Homo sapiens, UniProt P07900)
Construct: purchased BPS Bioscience #50298
Assay: HSP90α-binding FP (BODIPY) assay
Details: FP competition with BODIPY-labeled RNK04010

Field request: IC50 | item: CCOc1cc(N2CCC(C(=O)N[C@H](C)c3ccc(CN4CCC(Cc5ccc(-n6c(O)nnc6-c6cc(C(C)C)c(O)cc6O)cc5)CC4)cc3)CC2)ccc1Nc1ncc2c(n1)N(C)c1ccccc1C(=O)N2C
100 to 1000 nM

Give its IC50 value. Item: CCOc1cc(N2CCC(C(=O)N3CCN(Cc4ccc(-n5c(O)nnc5-c5cc(C(C)C)c(O)cc5O)cc4C(F)(F)F)CC3)CC2)ccc1Nc1ncc2c(n1)N(S(C)(=O)=O)c1ccccc1C(=O)N2C
100 to 1000 nM

Name the reported IC50 value associated with the molecule CCOc1cc(N2CCC(C(=O)N3CCC(CN4CCN(Cc5ccc(-n6c(C(N)=O)nnc6-c6cc(CC)c(O)cc6O)cc5)CC4)CC3)CC2)ccc1Nc1ncc2c(n1)N(S(C)(=O)=O)c1ccccc1C(=O)N2C
< 100 nM

Need IC50, item CCOc1cc(N2CCC(C(=O)N3CCN(Cc4ccc(-n5c(O)nnc5-c5cc(CC)c(O)cc5O)cc4)CC3)CC2)ccc1Nc1ncc2c(n1)N(C)c1ccccc1C(=O)N2C
100 to 1000 nM

# lookup: IC50 of CCOc1cc(N2CCC(C(=O)N3CCN(Cc4ccc(-n5c(O)nnc5-c5cc(C)c(O)cc5O)cc4)CC3)CC2)ccc1Nc1ncc2c(n1)N(C)c1ccccc1C(=O)N2C
100 to 1000 nM

Would you kindly share the measured IC50 for CCOc1cc(N2CCC(C(=O)NCc3ccc(-n4c(O)nnc4-c4cc(CC)c(O)cc4O)cc3C(F)(F)F)CC2)ccc1Nc1ncc2c(n1)N(S(C)(=O)=O)c1ccccc1C(=O)N2C ?
100 to 1000 nM

Fill blank: measured IC50 of the molecule CCOc1cc(N2CCC(C(=O)N3CCC(N4CCN(c5ccc(-n6c(O)nnc6-c6cc(C(C)C)c(O)cc6O)cc5)CC4)CC3)CC2)ccc1Nc1ncc2c(n1)N(C)c1ccccc1C(=O)N2C is ____.
100 to 1000 nM
